system: rat's hind paw heat-edema; test: heat-induced paw edema in pentobarbital-anesthetized rat (58° C. water, 1 minute); format: in vivo; conditions: dose 5 mg/kg i.v., ten minutes before 58° C. water for 1 minute; edema measured 30 minutes after heat; N.S. = not different from saline
Where a SMILES comes first, the peptide text is derived from it.
assayReadout: Heat-Edema % Saline Values (% Saline Values)
Give the quantity in % Saline Values, number only.

// sample CC[C@H](C)[C@H](NC(=O)[C@H](Cc1ccc(I)cc1)NC(=O)[C@H](CC(C)C)NC(=O)[C@H](CC(C)C)NC(=O)[C@H](CCCCN)NC(=O)[C@@H](N)CCCNC(=N)N)C(=O)N[C@H](CC(C)C)C(N)=O [Composition 11] (HELM PEPTIDE1{R.K.L.L.[O=C([C@H](Cc1ccc(I)cc1)N[*:1])[*:2]].I.[dL].[am]}$$$$V2.0) , its Heat-Edema % Saline Values was 49

With those in mind, consider the next compound.
// sample CC[C@H](C)[C@H](NC(=O)[C@H](Cc1ccc(O)cc1)NC(=O)[C@H](CCSC)NC(=O)[C@H](CC(C)C)NC(=O)[C@H](CCCCN)NC(=O)[C@@H](N)CCCNC(=N)N)C(=O)N[C@H](CC(C)C)C(N)=O [Composition 5] (HELM PEPTIDE1{R.K.L.M.Y.I.[dL].[am]}$$$$V2.0) , its Heat-Edema % Saline Values was 70

====

test system: rat's hind paw heat-edema; test: heat-induced paw edema in pentobarbital-anesthetized rat (58° C. water, 1 minute); assay type: in vivo; details: dose 5 mg/kg i.v., ten minutes before 58° C. water for 1 minute; edema measured 30 minutes after heat; N.S. = not different from saline
Where a SMILES comes first, the peptide text is derived from it.
assayReadout: Heat-Edema % Saline Values

// sample CC[C@H](C)[C@H](NC(=O)[C@H](CCCNC(=N)N)NC(=O)[C@H](CC(C)C)NC(=O)[C@H](CC(C)C)NC(=O)[C@H](CCCCN)NC(=O)[C@@H](N)CCCNC(=N)N)C(=O)N[C@H](CC(C)C)C(N)=O [Composition 9] (HELM PEPTIDE1{R.K.L.L.R.I.[dL].[am]}$$$$V2.0) , its Heat-Edema % Saline Values was 18 ± 3 % Saline Values

With those in mind, consider the next compound.
// sample CC[C@H](C)[C@H](NC(=O)[C@H](Cc1c[nH]c2ccccc12)NC(=O)[C@H](CCSC)NC(=O)[C@H](CC(C)C)NC(=O)[C@H](CCCCN)NC(=O)[C@@H](N)CCCNC(=N)N)C(=O)N[C@H](CC(C)C)C(N)=O [Composition 7] (HELM PEPTIDE1{R.K.L.M.W.I.[dL].[am]}$$$$V2.0) , its Heat-Edema % Saline Values was 38 ± 5 % Saline Values

====

system: rat's hind paw heat-edema; assay: heat-induced paw edema in pentobarbital-anesthetized rat (58° C. water, 1 minute); format: in vivo; details: dose 5 mg/kg i.v., ten minutes before 58° C. water for 1 minute; edema measured 30 minutes after heat; N.S. = not different from saline
Where a SMILES comes first, the peptide text is derived from it.
assayReadout: Heat-Edema % Saline Values (% Saline Values)
Give the quantity in % Saline Values, number only.

Entry CC[C@H](C)[C@H](NC(=O)[C@H](CCCCN)NC(=O)[C@H](CC(C)C)NC(=O)[C@H](CC(C)C)NC(=O)[C@H](CCCCN)NC(=O)[C@@H](N)CCCNC(=N)N)C(=O)N[C@H](CC(C)C)C(N)=O [Composition 8] (HELM PEPTIDE1{R.K.L.L.K.I.[dL].[am]}$$$$V2.0) , tested on rat's hind paw heat-edema, has a reported Heat-Edema % Saline Values of 38

====

tested on: rat's hind paw heat-edema; assay: heat-induced paw edema in pentobarbital-anesthetized rat (58° C. water, 1 minute); type: in vivo; conditions: dose 5 mg/kg i.v., ten minutes before 58° C. water for 1 minute; edema measured 30 minutes after heat; N.S. = not different from saline
Where a SMILES comes first, the peptide text is derived from it.
Below is a list of entries, each paired with its recorded Heat-Edema % Saline Values value.
Give the quantity in % Saline Values, number only.

// sample CC[C@H](C)[C@H](NC(=O)[C@H](Cc1ccc(F)cc1)NC(=O)[C@H](CC(C)C)NC(=O)[C@H](CC(C)C)NC(=O)[C@H](CCCCN)NC(=O)[C@@H](N)CCCNC(=N)N)C(=O)N[C@H](CC(C)C)C(N)=O [Composition 10] (HELM PEPTIDE1{R.K.L.L.[O=C([C@H](Cc1ccc(F)cc1)N[*:1])[*:2]].I.[dL].[am]}$$$$V2.0) , its Heat-Edema % Saline Values was 54

// sample CC[C@H](C)[C@H](NC(=O)[C@H](Cc1ccc([N+](=O)[O-])cc1)NC(=O)[C@H](CC(C)C)NC(=O)[C@H](CC(C)C)NC(=O)[C@H](CCCCN)NC(=O)[C@@H](N)CCCNC(=N)N)C(=O)N[C@H](CC(C)C)C(N)=O [Composition 12] (HELM PEPTIDE1{R.K.L.L.[O=C([C@H](Cc1ccc([N+](=O)[O-])cc1)N[*:1])[*:2]].I.[dL].[am]}$$$$V2.0) , its Heat-Edema % Saline Values was 41

With those in mind, consider the next compound.
// sample CC[C@H](C)[C@H](NC(=O)[C@H](CC(C)C)NC(=O)[C@H](CCSC)NC(=O)[C@H](CC(C)C)NC(=O)[C@H](CCCCN)NC(=O)[C@@H](N)CCCNC(=N)N)C(=O)N[C@H](CC(C)C)C(N)=O [Composition 6] (HELM PEPTIDE1{R.K.L.M.L.I.[dL].[am]}$$$$V2.0) , its Heat-Edema % Saline Values was 67
